- test_summary: Cytotoxicity assay in cells stably expressing EV
- test_conditions: human, Cytotoxicity, % of control, average, WI-26 VA4 EV; 10000 nM
readout_kind: activity at 72 h, 10 µM (%)
Report as a plain number; the unit % is understood.

*Q* Which activity at 72 h, 10 µM value belongs to O[C@H]1CCCN[C@@H]1CCCn1cnc2c(Cl)c(Cl)ccc21 [DWN12088] ?
*A* 108

----------
- Tested on: WI‐26 VA4 cells
- test_summary: CellTiter‐Glo assay (cytotoxicity)
- test_conditions: Homo sapiens, WI26VA4, read-out: CellTiter-Glo % of control, 10 nM; Experiment #2, replicates
I'd appreciate it if you could supply activity at 0.01 µM values for the items below.
Report as a plain number; the unit % is understood.

*Q* Which activity at 0.01 µM value belongs to O[C@H]1CCCN[C@@H]1CCCn1cnc2c(Cl)c(Cl)ccc21 ?
*A* 105

*Q* Which activity at 0.01 µM value belongs to Cc1c(Cl)ccc2c1ncn2CC(=O)C[C@H]1NCCC[C@@H]1O ?
*A* 98.9

*Q* Which activity at 0.01 µM value belongs to O=C(CC1NCCCC1O)Cn1cnc2cc(Br)c(Cl)cc2c1=O (stereo not shown) [HF, Halofuginone, reference compound] ?
*A* 85.1

*Q* Which activity at 0.01 µM value belongs to O=C(C[C@H]1NCCC[C@@H]1O)Cn1cnc2ccc(-c3cccc(F)c3)cc21 ?
*A* 121

----------
- target_system: PARS1 F1097A/E1123A/R1152L (FA/EA/RL) mutant (Homo sapiens, UniProt P07814, E1123A/F1097A/R1152L)
- Construct: His‐PARS1 (1001–1,512 aa); made in house; host or cells: Escherichia coli
- Sequence (P07814 1001-1512 F1097A/E1123A/R1152L): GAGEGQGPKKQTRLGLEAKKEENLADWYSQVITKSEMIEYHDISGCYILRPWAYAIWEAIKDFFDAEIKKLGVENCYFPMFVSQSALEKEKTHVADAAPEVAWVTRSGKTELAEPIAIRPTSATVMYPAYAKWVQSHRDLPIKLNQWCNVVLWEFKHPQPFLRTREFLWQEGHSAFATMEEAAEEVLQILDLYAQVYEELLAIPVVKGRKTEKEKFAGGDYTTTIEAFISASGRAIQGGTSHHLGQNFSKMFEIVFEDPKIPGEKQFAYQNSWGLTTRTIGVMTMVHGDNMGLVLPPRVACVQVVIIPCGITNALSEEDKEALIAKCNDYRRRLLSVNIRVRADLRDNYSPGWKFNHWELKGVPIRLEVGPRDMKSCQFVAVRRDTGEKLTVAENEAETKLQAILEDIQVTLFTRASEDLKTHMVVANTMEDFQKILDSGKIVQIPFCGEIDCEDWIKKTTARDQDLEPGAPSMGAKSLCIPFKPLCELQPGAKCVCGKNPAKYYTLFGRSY
- test_summary: Microscale thermophoresis (MST), PARS1 mutant
- Format: binding
- test_conditions: Kd (Fit Results), His-PARS1 FA/EA/RL; doses of the sheet in nM
readout_kind: Kd (nM)
Report as a plain number; the unit nM is understood.

*Q* Which Kd value belongs to O[C@H]1CCCN[C@@H]1CCCn1cnc2c(Cl)c(Cl)ccc21 [DWN12088] ?
*A* 114000

----------
- Tested on: WI‐26 VA4 cells
- test_summary: CellTiter‐Glo assay (cytotoxicity)
- test_conditions: Homo sapiens, WI26VA4, read-out: CellTiter-Glo % of control, 3000 nM; Experiment #1, replicates
readout_kind: activity at 3 µM (%)
Report as a plain number; the unit % is understood.

*Q* Which activity at 3 µM value belongs to O[C@H]1CCCN[C@@H]1CCCn1cnc2c(Cl)c(Cl)ccc21 ?
*A* 88.2

*Q* Which activity at 3 µM value belongs to Cc1c(Cl)ccc2c1ncn2CC(=O)C[C@H]1NCCC[C@@H]1O ?
*A* 29.5

*Q* Which activity at 3 µM value belongs to O=C(C[C@H]1NCCC[C@@H]1O)Cn1cnc2ccc(-c3cccc(F)c3)cc21 ?
*A* 36.1

*Q* Which activity at 3 µM value belongs to Cc1c(Br)cnc2c1ncn2CC(=O)C[C@H]1NCCC[C@@H]1O ?
*A* 39.6

----------
- Tested on: TNT Quick Coupled Transcription/Translation System (luciferase synthesis)
- Format: biochemical
- test_conditions: 20000 nM; average
readout_kind: TNT-luciferase % of control, average

*Q* Which TNT-luciferase % of control, average value belongs to Cc1c(Br)cnc2c1ncn2CC(=O)C[C@H]1NCCC[C@@H]1O ?
*A* -0.00128 % of control

*Q* Which TNT-luciferase % of control, average value belongs to Cc1c(Cl)ccc2c1ncn2CC(=O)C[C@H]1NCCC[C@@H]1O ?
*A* 0.35 % of control

*Q* Which TNT-luciferase % of control, average value belongs to O=C(C[C@H]1NCCC[C@@H]1O)Cn1cnc2ccc(-c3cccc(F)c3)cc21 ?
*A* 10.19 % of control

*Q* Which TNT-luciferase % of control, average value belongs to O[C@H]1CCCN[C@@H]1CCCn1cnc2c(Cl)c(Cl)ccc21 ?
*A* 76.75 % of control

----------
- System: WI‐26 VA4 cells
- test_summary: CellTiter‐Glo assay (cytotoxicity)
- test_conditions: Homo sapiens, WI26VA4, read-out: CellTiter-Glo % of control, average, 100 nM; average
readout_kind: activity at 0.1 µM (%)
Report as a plain number; the unit % is understood.

*Q* Record lookup: for WI‐26 VA4 cells, what activity at 0.1 µM belongs to O[C@H]1CCCN[C@@H]1CCCn1cnc2c(Cl)c(Cl)ccc21 ?
*A* 109

*Q* Record lookup: for WI‐26 VA4 cells, what activity at 0.1 µM belongs to O=C(C[C@H]1NCCC[C@@H]1O)Cn1cnc2ccc(-c3cccc(F)c3)cc21 ?
*A* 119

*Q* Record lookup: for WI‐26 VA4 cells, what activity at 0.1 µM belongs to Cc1c(Br)cnc2c1ncn2CC(=O)C[C@H]1NCCC[C@@H]1O ?
*A* 66.3

*Q* Record lookup: for WI‐26 VA4 cells, what activity at 0.1 µM belongs to Cc1c(Cl)ccc2c1ncn2CC(=O)C[C@H]1NCCC[C@@H]1O ?
*A* 94.6

*Q* Record lookup: for WI‐26 VA4 cells, what activity at 0.1 µM belongs to O=C(CC1NCCCC1O)Cn1cnc2cc(Br)c(Cl)cc2c1=O (centres unmarked) [HF, Halofuginone, reference compound] ?
*A* 30.6

----------
- test_summary: Cytotoxicity assay in cells stably expressing PARS1 mutant
- test_conditions: human, Cytotoxicity, % of control, average, WI-26 VA4 Flag-PARS1 FA/EA/RL; 30 nM
readout_kind: activity at 72 h, 0.03 µM (%)
Report as a plain number; the unit % is understood.

*Q* Which activity at 72 h, 0.03 µM value belongs to O[C@H]1CCCN[C@@H]1CCCn1cnc2c(Cl)c(Cl)ccc21 ?
*A* 107

----------
- test_summary: Cytotoxicity assay in cells stably expressing EV
- test_conditions: human, Cytotoxicity, % of control, average, WI-26 VA4 EV; 100000 nM
readout_kind: activity at 72 h, 100 µM (%)
Report as a plain number; the unit % is understood.

*Q* Which activity at 72 h, 100 µM value belongs to O[C@H]1CCCN[C@@H]1CCCn1cnc2c(Cl)c(Cl)ccc21 ?
*A* 25.1

----------
- test_summary: Cytotoxicity assay in cells stably expressing PARS1 mutant
- test_conditions: human, Cytotoxicity, % of control, average, WI-26 VA4 Flag-PARS1 FA/EA/RL; 1000000 nM
readout_kind: activity at 72 h, 1000 µM (%)
Report as a plain number; the unit % is understood.

*Q* Which activity at 72 h, 1000 µM value belongs to O[C@H]1CCCN[C@@H]1CCCn1cnc2c(Cl)c(Cl)ccc21 [DWN12088] ?
*A* 0

----------
- target_system: His‐PARS1 (Homo sapiens)
- Construct: His‐PARS1 (1001–1,512 aa); made in house; host or cells: Escherichia coli
- Sequence (P07814 1001-1512 limits assumed): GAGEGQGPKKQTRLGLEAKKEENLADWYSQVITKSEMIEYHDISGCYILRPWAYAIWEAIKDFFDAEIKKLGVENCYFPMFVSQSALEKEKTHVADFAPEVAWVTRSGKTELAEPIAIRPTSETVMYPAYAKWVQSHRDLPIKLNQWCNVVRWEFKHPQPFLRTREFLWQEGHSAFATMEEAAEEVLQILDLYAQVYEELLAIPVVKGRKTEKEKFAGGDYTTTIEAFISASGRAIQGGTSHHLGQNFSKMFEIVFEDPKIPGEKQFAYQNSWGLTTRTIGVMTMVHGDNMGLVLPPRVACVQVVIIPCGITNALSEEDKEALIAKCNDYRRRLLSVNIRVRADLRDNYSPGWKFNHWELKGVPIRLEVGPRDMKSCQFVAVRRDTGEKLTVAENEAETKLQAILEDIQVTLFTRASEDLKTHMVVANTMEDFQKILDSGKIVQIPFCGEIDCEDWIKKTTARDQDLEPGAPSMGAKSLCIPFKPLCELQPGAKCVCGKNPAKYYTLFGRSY
- test_summary: Surface plasmon resonance (SPR)
- Assay type: binding
- test_conditions: Kd, SPR, in the presence of ATP
readout_kind: pKd
# log scale: pKd equals minus log10 of the concentration in mol/L

*Q* Which pKd value belongs to O[C@H]1CCCN[C@@H]1CCCn1cnc2c(Cl)c(Cl)ccc21 ?
*A* 4.51

Each recorded value in this set is attributed to paper PMC10331583.
